Kindly state glycan array binding signal (z-score) for each of the entries shown.
- Measurement Target: Man(a1-3)[Man(a1-6)]Man(a1-6)[Man(a1-3)]Man
- Method Summary: glycan array binding signal (z-score within array); higher = stronger binding
- Protocol Conditions: glycan notation: IUPAC condensed, linker removed
Shown is part of a subset that was picked to be rich in the strongest signals.

{"columns": ["Binder", "Value"],
 "data": [
  ["CFEM-PPl (Pichia pastoris), F2QPV1 (protein) AVATPPACLLACAAEVVKESSDCDALNNIQCICENEGSAIHACLESTCPDGLSSTALQSFEDVCESVGTEANLDE", -0.201]
]}

For the next question, use this binder.
Request: What does the record list as glycan array binding signal (z-score) for DCIR1 (Mus musculus), Q9QZ15 (protein) MASEITYAEVKFKNESNSLHTYSESPAAPREKPIRDLRKPGSPSLLLTSLMLLLLLLAITFLVAFIIYFQKYSQLLEEKKAAKNIMHNELNCTKSVSPMEDKVWSCCPKDWRLFGSHCYLVPTVSSSASWNKSEENCSRMGAHLVVIQSQEEQDFITGILDTHAAYFIGLWDTGHRQWQWVDQTPYEESITFWHNGEPSSGNEKCATIIYRWKTGWGWNDISCSLKQKSVCQMKKINL ?
Response: 0.267
